Target: UniProt:Q8WWR8
Sequence (Q8WWR8 whole entry): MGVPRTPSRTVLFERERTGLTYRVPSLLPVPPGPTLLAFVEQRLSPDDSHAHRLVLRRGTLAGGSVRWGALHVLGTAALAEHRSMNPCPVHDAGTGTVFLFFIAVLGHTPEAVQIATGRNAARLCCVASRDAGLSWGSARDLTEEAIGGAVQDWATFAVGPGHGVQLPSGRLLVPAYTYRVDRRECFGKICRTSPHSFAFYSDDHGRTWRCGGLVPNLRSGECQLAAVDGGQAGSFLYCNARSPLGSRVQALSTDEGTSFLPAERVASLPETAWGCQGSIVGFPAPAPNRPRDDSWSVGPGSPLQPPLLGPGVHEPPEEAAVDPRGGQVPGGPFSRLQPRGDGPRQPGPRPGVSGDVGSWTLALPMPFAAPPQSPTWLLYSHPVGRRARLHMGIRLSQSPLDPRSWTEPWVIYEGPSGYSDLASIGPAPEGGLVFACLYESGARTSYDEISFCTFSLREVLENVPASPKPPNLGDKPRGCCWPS
Assay: IC50 inhibition assay using 4MU-NANA as the substrate, NEU4
Type: biochemical
Parameters: GST; made in house; host or cells: E. coli
Conditions: 4MU-NANA as the substrate; read-out: IC50 NEU4
pIC50: −log10 of the molar value.
Is pIC50 at least 4? Then True. If not, False.

>>> assigned_label("CCCCC(=O)NCC(O)C(O)C1OC(C(=O)O)=CC(O)[C@H]1NC(=O)CCCC (stereo partly shown)")
"False"
>>> assigned_label("CCCCC(=O)N[C@H]1[C@H]([C@H](O)[C@H](O)CNC(C)=O)OC(C(=O)O)=C[C@@H]1O")
"False"
>>> assigned_label("CN(C)c1ccc(-c2cn(CC(=O)N[C@@H]3C(O)C=C(C(=O)O)OC3C(O)C(O)CO)nn2)cc1 (stereo partly shown)")
"True"
>>> assigned_label("CC(=O)Nc1ccc(C(=O)NCCCCC(=O)NC[C@@H](O)[C@@H](O)[C@@H]2OC(C(=O)O)=C[C@H](O)[C@H]2NC(C)=O)cc1")
"True"
>>> assigned_label("CC(=O)N[C@H]1[C@H]([C@H](O)[C@H](O)CNC(=O)c2ccc(N)cc2)OC(C(=O)O)=C[C@@H]1O")
"False"
>>> assigned_label("CC(=O)N[C@H]1[C@H]([C@H](O)[C@H](O)Cn2cc(-c3ccc(C(=O)O)cc3)nn2)OC(C(=O)O)=C[C@@H]1NC(=O)NCCC(=O)O")
"True"

###

Target: NEU1 (Homo sapiens)
Construct: made in house; host or cells: HEK293 (lentiviral transduction), crude lysate
Experiment: IC50 inhibition assay using 4MU-NANA as the substrate, NEU1
Type: biochemical
Details: 4MU-NANA as the substrate; read-out: IC50 NEU1
pIC50: −log10 of the molar value.
Property: pIC50; scope: individual molecules
MEASURED_ENDPOINT: pIC50

>>> test_value("CC(C)C(=O)N[C@H]1[C@H]([C@H](O)[C@H](O)CO)OC(C(=O)O)=C[C@@H]1O [compound 34]")
5.28
>>> test_value("COc1ccc(-c2cn(C[C@@H](O)[C@@H](O)[C@@H]3OC(C(=O)O)=C[C@H](O)[C@H]3NC(C)=O)nn2)cc1 [7e]")
4.33
>>> test_value("CC(=O)N[C@H]1[C@H]([C@H](O)[C@H](O)CNC(=O)c2ccc(N)cc2)OC(C(=O)O)=C[C@@H]1O [compound 59]")
4.54

###

Biological target: NEU3 (Homo sapiens, UniProt Q9UQ49)
Sequence (Q9UQ49 whole entry): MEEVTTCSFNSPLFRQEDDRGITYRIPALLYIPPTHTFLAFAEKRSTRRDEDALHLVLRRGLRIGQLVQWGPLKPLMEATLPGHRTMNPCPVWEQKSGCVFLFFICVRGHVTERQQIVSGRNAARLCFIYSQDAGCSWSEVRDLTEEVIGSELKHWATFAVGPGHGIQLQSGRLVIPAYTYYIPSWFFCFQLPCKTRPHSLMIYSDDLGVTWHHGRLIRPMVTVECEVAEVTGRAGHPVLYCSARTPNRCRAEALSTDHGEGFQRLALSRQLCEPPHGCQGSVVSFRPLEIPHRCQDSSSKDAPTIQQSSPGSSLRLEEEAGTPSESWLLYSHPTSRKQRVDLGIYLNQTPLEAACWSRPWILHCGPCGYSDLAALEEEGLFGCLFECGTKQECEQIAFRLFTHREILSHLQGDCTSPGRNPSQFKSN
Experiment: IC50 inhibition assay using 4MU-NANA as the substrate, NEU3
Format: biochemical
Set-up: MBP (N); made in house; host or cells: E. coli
Conditions: 4MU-NANA as the substrate; read-out: IC50 NEU3
MEASURED_ENDPOINT: log10 IC50 (log10 of the value in µM)

>>> test_value("CC(=O)N[C@@H]1C(O)C=C(C(=O)O)OC1C(O)C(O)CNC(=O)CCC(C)C (some centres unmarked) [compound 55]")
1.73
>>> test_value("CCCCCCC(=O)NCC(O)C(O)C1OC(C(=O)O)=CC(O)[C@H]1NC(C)=O (some centres unmarked) [compound 52]")
1.59
>>> test_value("CC(=O)N[C@H]1[C@H]([C@H](O)[C@H](O)CNC(=O)c2ccc(N)cc2)OC(C(=O)O)=C[C@@H]1O [compound 59]")
1.49
>>> test_value("CCCCCCC(=O)N[C@H]1[C@H]([C@H](O)[C@H](O)CO)OC(C(=O)O)=C[C@@H]1O [compound 33]")
2.32
>>> test_value("CCCCCC(=O)NCC(O)C(O)C1OC(C(=O)O)=CC(O)[C@H]1NC(C)=O (some centres unmarked) [compound 51]")
1.92
>>> test_value("CC(=O)N[C@H]1[C@H]([C@H](O)[C@H](O)CO)OC(C(=O)O)=C[C@@H]1O [DANA, reference compound]")
0.89
>>> test_value("CCCCCC(=O)NC[C@@H](O)[C@@H](O)[C@@H]1OC(C(=O)O)=C[C@H](O)[C@H]1NC(=O)CC [compound 66]")
2.41
>>> test_value("COc1ccc(-c2cn(C[C@@H](O)[C@@H](O)[C@@H]3OC(C(=O)O)=C[C@H](O)[C@H]3NC(C)=O)nn2)cc1 [7e]")
0.77
>>> test_value("CCCCCc1cn(C[C@@H](O)[C@@H](O)[C@@H]2OC(C(=O)O)=C[C@H](O)[C@H]2NC(C)=O)nn1 [compound 63]")
0.83
>>> test_value("CC(=O)N[C@H]1[C@H]([C@H](O)[C@H](O)CNC(=O)c2cccc(N)c2)OC(C(=O)O)=C[C@@H]1O [compound 61]")
1.54
>>> test_value("Nc1ccc(-c2cn(CC(=O)N[C@@H]3C(O)C=C(C(=O)O)OC3C(O)C(O)CO)nn2)cc1 (some centres unmarked) [compound 46]")
2.63
>>> test_value("CC(C)CCC(=O)N[C@H]1[C@H]([C@H](O)[C@H](O)CO)OC(C(=O)O)=C[C@@H]1NC(=N)N [compound 71]")
2.18
